Biological target: δ-opioid receptor of the mouse vas deferens (MVD) (mouse), P32300
Sequence (P32300 whole entry, stated change not applied): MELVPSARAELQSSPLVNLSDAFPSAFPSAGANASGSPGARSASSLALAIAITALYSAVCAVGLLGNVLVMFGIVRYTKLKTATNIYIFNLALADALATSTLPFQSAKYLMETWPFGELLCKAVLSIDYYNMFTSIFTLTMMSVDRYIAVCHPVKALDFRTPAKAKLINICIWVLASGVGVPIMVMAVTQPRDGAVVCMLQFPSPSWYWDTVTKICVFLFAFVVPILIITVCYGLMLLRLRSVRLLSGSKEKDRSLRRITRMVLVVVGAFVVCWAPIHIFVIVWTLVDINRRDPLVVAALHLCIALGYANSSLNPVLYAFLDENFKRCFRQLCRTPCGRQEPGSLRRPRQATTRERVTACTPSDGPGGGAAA
Test: cell-based or functional assay
Non-standard residues stand in square brackets, D forms with d. *: point of attachment. des‑NH2‑α‑pyrrolidine‑1‑yl = Dmt (2',6'-dimethyl-L-tyrosine) with the α-amine replaced by pyrrolidine-1-yl, Cc1cc(O)cc(C)c1C[C@@H](C(=O)*)N1CCCC1; Dmt = Cc1cc(O)cc(C)c1C[C@H](N)C(=O)O; Tic = O=C(O)[C@@H]1Cc2ccccc2CN1; NHtBu = CC(C)(C)N*
measure: MVD pA2
The reply should be a number, written without any unit.

Please review the entries below; each comes with its answer.
{N,N‑dimethyl}-[Dmt]-[Tic]-OH (also: tritium-labelled form used as radioligand) [N,N(Me)2-Dmt-Tic-OH]: 9.4
{N,N‑dimethyl}-[Dmt]-[Tic]-NHMe [N,N(Me)2-Dmt-Tic-NHMe]: 9.39

Exercise: Which MVD pA2 is listed for H-[Dmt]-[Tic]-NH2 [H-Dmt-Tic-NH2] ?
Solution: 7.2

Exercise: How about this binder: H-[Dmt]-[Tic]-Ala-NHtBu (SMILES Cc1cc(O)cc(C)c1C[C@H](N)C(=O)N1Cc2ccccc2C[C@H]1C(=O)N[C@@H](C)C(=O)NC(C)(C)C) [H-Dmt-Tic-Ala-NH-tBu]
Solution: 9.16

Exercise: Entry {des‑NH2‑α‑pyrrolidine‑1‑yl}-[Dmt]-[Tic]-OH [[des-NH2-α-pyrrolidine-1-yl]-Dmt-Tic-OH] please
Solution: 6.9
